Each entry below carries its recorded Molar absorption coefficient.
Assay: UV absorbance and fluorescence of ribonucleoside analogues in DMSO (molar extinction coefficient, quantum yield)
Assay type: physicochemical
Number only, in M⁻¹ cm⁻¹; omit the unit.

Reference set (5 entries):
| Input Smiles | Molar absorption coefficient [M⁻¹ cm⁻¹] |
| --- | --- |
| COc1ccc(C#Cc2nc3c(=O)[nH]c(N)nc3n2[C@@H]2O[C@H](CO)[C@@H](O)[C@H]2O)cc1 | 22569 |
| Nc1nc2c(nc(C#Cc3cccc4ccccc34)n2[C@@H]2O[C@H](CO)[C@@H](O)[C@H]2O)c(=O)[nH]1 | 15141 |
| CSc1ccc(C#Cc2nc3c(N)ncnc3n2[C@@H]2O[C@H](CO)[C@@H](O)[C@H]2O)cc1 | 26019 |
| COc1cccc(C#Cc2nc3c(N)ncnc3n2[C@@H]2O[C@H](CO)[C@@H](O)[C@H]2O)c1 | 19589 |
| Nc1ncnc2c1nc(C#Cc1ccc(Cl)cc1)n2[C@@H]1O[C@H](CO)[C@@H](O)[C@H]1O | 23927 |

Lookup: Look up Molar absorption coefficient for this compound: Nc1ncnc2c1nc(C#Cc1cccc(C(F)(F)F)c1)n2[C@@H]1O[C@H](CO)[C@@H](O)[C@H]1O
Found: 19547

Lookup: Look up Molar absorption coefficient for this compound: Cc1ccc(C#Cc2nc3c(N)ncnc3n2[C@@H]2O[C@H](CO)[C@@H](O)[C@H]2O)cc1
Found: 18772

Lookup: Look up Molar absorption coefficient for this compound: COc1ccc(C#Cc2nc3c(N)ncnc3n2[C@@H]2O[C@H](CO)[C@@H](O)[C@H]2O)cc1
Found: 18176

Lookup: Look up Molar absorption coefficient for this compound: Nc1ncnc2c1nc(C#Cc1cccc3ccccc13)n2[C@@H]1O[C@H](CO)[C@@H](O)[C@H]1O
Found: 22970

Lookup: Look up Molar absorption coefficient for this compound: CSc1ccc(C#Cc2nc3c(=O)[nH]c(N)nc3n2[C@@H]2O[C@H](CO)[C@@H](O)[C@H]2O)cc1
Found: 19832

###

Experiment: UV absorbance and fluorescence of ribonucleoside analogues in DMSO (molar extinction coefficient, quantum yield)
Assay type: physicochemical
Settings: relative to quinine sulphate and anthracene standards
Readout Name: Quantum yield

Reference set (2 entries):
| Input Smiles | Quantum yield |
| --- | --- |
| Cc1ccc(C#Cc2nc3c(=O)[nH]c(N)nc3n2[C@@H]2O[C@H](CO)[C@@H](O)[C@H]2O)cc1 | 3.1% |
| Cc1ccc(C#Cc2nc3c(N)ncnc3n2[C@@H]2O[C@H](CO)[C@@H](O)[C@H]2O)cc1 | 54% |

Please look at the following molecule next.
Lookup: Look up Quantum yield for this molecule: COc1ccc(C#Cc2nc3c(N)ncnc3n2[C@@H]2O[C@H](CO)[C@@H](O)[C@H]2O)cc1
Found: 24%

###

Assay: UV absorbance and fluorescence of ribonucleoside analogues in DMSO (molar extinction coefficient, quantum yield)
Format: physicochemical
Readout Name: Wavelength at maximum in UV absorption (nm)
Number only, in nm; omit the unit.

Reference set (4 entries):
| Input Smiles | Wavelength at maximum in UV absorption, nm |
| --- | --- |
| Nc1nc2c(nc(C#Cc3ccccc3C(F)(F)F)n2[C@@H]2O[C@H](CO)[C@@H](O)[C@H]2O)c(=O)[nH]1 | 347 |
| Nc1ncnc2c1nc(C#Cc1cccc(C(F)(F)F)c1)n2[C@@H]1O[C@H](CO)[C@@H](O)[C@H]1O | 326 |
| CC(=O)c1ccc(C#Cc2nc3c(=O)[nH]c(N)nc3n2[C@@H]2O[C@H](CO)[C@@H](O)[C@H]2O)cc1 | 364 |
| CCN(CC)c1ccc(C#Cc2nc3c(N)ncnc3n2[C@@H]2O[C@H](CO)[C@@H](O)[C@H]2O)cc1 | 365 |

Lookup: Look up Wavelength at maximum in UV absorption for this molecule: CC(=O)c1ccc(C#Cc2nc3c(N)ncnc3n2[C@@H]2O[C@H](CO)[C@@H](O)[C@H]2O)cc1
Found: 343

Lookup: Look up Wavelength at maximum in UV absorption for this molecule: Nc1nc2c(nc(C#Cc3ccc(Cl)cc3)n2[C@@H]2O[C@H](CO)[C@@H](O)[C@H]2O)c(=O)[nH]1
Found: 338

Lookup: Look up Wavelength at maximum in UV absorption for this molecule: Nc1ncnc2c1nc(C#Cc1ccccc1)n2[C@@H]1O[C@H](CO)[C@@H](O)[C@H]1O
Found: 322

Lookup: Look up Wavelength at maximum in UV absorption for this molecule: Cc1ccc(C#Cc2nc3c(N)ncnc3n2[C@@H]2O[C@H](CO)[C@@H](O)[C@H]2O)cc1
Found: 323

Lookup: Look up Wavelength at maximum in UV absorption for this molecule: COc1ccc(C#Cc2nc3c(=O)[nH]c(N)nc3n2[C@@H]2O[C@H](CO)[C@@H](O)[C@H]2O)cc1
Found: 330

Lookup: Look up Wavelength at maximum in UV absorption for this molecule: Nc1ncnc2c1nc(C#Cc1ccc(C(F)(F)F)cc1)n2[C@@H]1O[C@H](CO)[C@@H](O)[C@H]1O
Found: 333

Lookup: Look up Wavelength at maximum in UV absorption for this molecule: CCN(CC)c1ccc(C#Cc2nc3c(=O)[nH]c(N)nc3n2[C@@H]2O[C@H](CO)[C@@H](O)[C@H]2O)cc1
Found: 356

Lookup: Look up Wavelength at maximum in UV absorption for this molecule: COc1cccc(C#Cc2nc3c(=O)[nH]c(N)nc3n2[C@@H]2O[C@H](CO)[C@@H](O)[C@H]2O)c1
Found: 334
